# key: entry, value: selectivity ratio
Assay: Selectivity index, ratio of IC50 for african green monkey (Cercopithecus aethiops) Vero cells to IC50 for chloroquine-sensitive Plasmodium falciparum D6
Format: toxicity, cell-based
Details: read-out: Ratio IC50
recordedMetric: selectivity ratio

molecule	recordedMetric	recordedMeasurement
CC(C)c1ccc(C2OOC(c3ccc(C(C)C)cc3)OO2)cc1 (stereo unspecified)	selectivity ratio	> 21.6
CCCc1ccc(C2OOC(c3ccc(CCC)cc3)OO2)cc1 (stereo unspecified)	selectivity ratio	> 23.8
CCCc1ccc(C2OOC(c3ccc(OC)cc3)OO2)cc1 (stereo unspecified)	selectivity ratio	> 15.8
CC(C)c1ccc(C2OOC(c3ccc(C(C)(C)C)cc3)OO2)cc1 (stereo unspecified)	selectivity ratio	> 1
CCCc1ccc(C2OOC(c3ccc(C(C)C)cc3)OO2)cc1 (stereo unspecified)	selectivity ratio	> 15.4
Cc1ccc(C2OOC(c3ccc(C(C)(C)C)cc3)OO2)cc1 (stereo unspecified)	selectivity ratio	> 25.1

---

Assay: Selectivity index, ratio of IC50 for african green monkey (Cercopithecus aethiops) Vero cells to IC50 for chloroquine-sensitive Plasmodium falciparum D6
Type: toxicity, cell-based
Settings: read-out: Ratio IC50

compound	selectivity ratio
COc1ccc(C2OOC(c3ccc(C(C)C)cc3)OO2)cc1 (stereo unspecified)	> 1.9
C[C@@H]1CC[C@H]2[C@@H](C)C(=O)O[C@@H]3O[C@@]4(C)CC[C@@H]1[C@]32OO4 [ARTEMISININ]	> 476
CC(C)(C)c1ccc(C2OOC(c3ccc(C(C)(C)C)cc3)OO2)cc1 (stereo unspecified)	> 6.1
CCc1ccc(C2OOC(c3ccc(C(C)(C)C)cc3)OO2)cc1 (stereo unspecified)	> 2.6
COc1ccc(C2OOC(c3ccc(C(C)(C)C)cc3)OO2)cc1 (stereo unspecified)	> 26.4
COc1ccc(C2OOC(c3cccc(C)c3)OO2)cc1 (stereo unspecified)	> 39.7
Cc1ccc(C2OOC(c3ccc(C(C)C)cc3)OO2)cc1 (stereo unspecified)	> 26.4
Cc1ccc(C2OOC(c3cccc(C)c3)OO2)cc1 (stereo unspecified)	> 25.1
CCc1ccc(C2OOC(c3ccc(C)cc3)OO2)cc1 (stereo unspecified)	> 43.6
Cc1ccc(C2OOC(c3ccccc3)OO2)cc1 (stereo unspecified)	> 19.8
Cc1ccc(C2OOC(c3ccccc3C)OO2)cc1 (stereo unspecified)	> 5.7

---

Experiment: Selectivity index, ratio of IC50 for african green monkey (Cercopithecus aethiops) Vero cells to IC50 for chloroquine-resistant Plasmodium falciparum W2
Format: toxicity, cell-based
Conditions: read-out: Ratio IC50

compound	selectivity ratio
CC(C)c1ccc(C2OOC(c3ccc(C(C)(C)C)cc3)OO2)cc1 (stereo unspecified)	> 1.5
COc1ccc(C2OOC(c3cccc(C)c3)OO2)cc1 (stereo unspecified)	> 26.4
CCCc1ccc(C2OOC(c3ccc(C(C)(C)C)cc3)OO2)cc1 (stereo unspecified)	> 5.3
CC(C)c1ccc(C2OOC(c3ccc(C(C)C)cc3)OO2)cc1 (stereo unspecified)	> 14
COc1ccc(C2OOC(c3ccc(C(C)C)cc3)OO2)cc1 (stereo unspecified)	> 2.6
Cc1ccc(C2OOC(c3ccc(C(C)(C)C)cc3)OO2)cc1 (stereo unspecified)	> 19
CCCc1ccc(C2OOC(c3ccc(OC)cc3)OO2)cc1 (stereo unspecified)	> 22.7
CC(C)(C)c1ccc(C2OOC(c3ccc(C(C)(C)C)cc3)OO2)cc1 (stereo unspecified)	> 3.4
Cc1ccc(C2OOC(c3ccccc3C)OO2)cc1 (stereo unspecified)	> 7.9
C[C@@H]1CC[C@H]2[C@@H](C)C(=O)O[C@@H]3O[C@@]4(C)CC[C@@H]1[C@]32OO4	> 1400
CCc1ccc(C2OOC(c3cccc(C)c3)OO2)cc1 (stereo unspecified)	> 29.8

---

System: Plasmodium falciparum
Assay: Antimalarial activity after 72 hrs against chloroquine-sensitive Plasmodium falciparum D6 by Malstat LDH activity
Format: functional, organism-based
Settings: D6, 72 h
recordedMetric: IC50 (µM)

compound	recordedMetric	recordedMeasurement
CCc1ccc(C2OOC(c3ccc(C(C)C)cc3)OO2)cc1 (stereo not drawn)	IC50	0.45
CCCc1ccc(C2OOC(c3ccc(C(C)(C)C)cc3)OO2)cc1 (stereo not drawn)	IC50	4.09
COc1ccc(C2OOC(c3ccc(C)cc3)OO2)cc1 (stereo not drawn)	IC50	0.76
CCCc1ccc(C2OOC(c3ccc(C(C)C)cc3)OO2)cc1 (stereo not drawn)	IC50	0.96
CCCc1ccc(C2OOC(c3ccc(C)cc3)OO2)cc1 (stereo not drawn)	IC50	1.99
CCc1ccc(C2OOC(c3cccc(C)c3)OO2)cc1 (stereo not drawn)	IC50	0.35
CCCc1ccc(C2OOC(c3ccc(OC)cc3)OO2)cc1 (stereo not drawn)	IC50	0.94
Cc1ccc(C2OOC(c3ccccc3)OO2)cc1 (stereo not drawn)	IC50	0.93
CCc1ccc(C2OOC(c3ccc(C(C)(C)C)cc3)OO2)cc1 (stereo not drawn)	IC50	5.48
Cc1ccc(C2OOC(c3ccc(C(C)(C)C)cc3)OO2)cc1 (stereo not drawn)	IC50	0.6
Cc1ccc(C2OOC(c3ccc(C(C)C)cc3)OO2)cc1 (stereo not drawn)	IC50	0.59
COc1ccc(C2OOC(c3ccc(C(C)C)cc3)OO2)cc1 (stereo not drawn)	IC50	7.9
COc1ccc(C2OOC(c3cccc(C)c3)OO2)cc1 (stereo not drawn)	IC50	0.42

---

Assay: Selectivity index, ratio of IC50 for african green monkey (Cercopithecus aethiops) Vero cells to IC50 for chloroquine-sensitive Plasmodium falciparum D6
Type: toxicity, cell-based
Details: read-out: Ratio IC50

compound	selectivity ratio
CCCc1ccc(C2OOC(c3ccc(C)cc3)OO2)cc1 (centres undefined)	> 7.9
CCc1ccc(C2OOC(c3ccc(CC)cc3)OO2)cc1 (centres undefined)	> 15.9
Cc1cccc(C2OOC(c3ccccc3C)OO2)c1 (centres undefined)	> 17
Cc1cccc(C2OOC(c3ccccc3)OO2)c1 (centres undefined)	> 36.8
COc1ccc(C2OOC(c3ccc(C)cc3)OO2)cc1 (centres undefined)	> 21.6
CCc1ccc(C2OOC(c3ccc(C(C)C)cc3)OO2)cc1 (centres undefined)	> 34
CCCCc1ccc(C2OOC(c3ccc(CCCC)cc3)OO2)cc1 (centres undefined)	> 3.7
CCc1ccc(C2OOC(c3cccc(C)c3)OO2)cc1 (centres undefined)	> 47.6
CCCc1ccc(C2OOC(c3ccc(C(C)(C)C)cc3)OO2)cc1 (centres undefined)	> 3.4

---

Test system: Vero
Test: Cytotoxicity against african green monkey Vero cells upto 16.72 uM after 48 hrs by neutral red assay
Format: cell-based
Conditions: chlorocebus sabaeus
recordedMetric: Activity

compound	recordedMeasurement
CCCc1ccc(C2OOC(c3ccc(C)cc3)OO2)cc1 (stereo not drawn)	Non-toxic
CCN(CC)CCCC(C)Nc1ccnc2cc(Cl)ccc12 (stereo not drawn)	Non-toxic
CC(C)(C)c1ccc(C2OOC(c3ccc(C(C)(C)C)cc3)OO2)cc1 (stereo not drawn)	Non-toxic

---

Assay: Selectivity index, ratio of IC50 for african green monkey (Cercopithecus aethiops) Vero cells to IC50 for chloroquine-resistant Plasmodium falciparum W2
Assay type: toxicity, cell-based
Settings: read-out: Ratio IC50
This listing pairs molecules with measured selectivity ratio.

molecule	selectivity ratio
Cc1cccc(C2OOC(c3ccccc3C)OO2)c1 (stereo not given)	> 12.9
CCCc1ccc(C2OOC(c3ccc(CCC)cc3)OO2)cc1 (stereo not given)	> 19
CCCc1ccc(C2OOC(c3ccc(C(C)C)cc3)OO2)cc1 (stereo not given)	> 18.3
CCc1ccc(C2OOC(c3ccc(C(C)C)cc3)OO2)cc1 (stereo not given)	> 26.4
CCc1ccc(C2OOC(c3ccc(C)cc3)OO2)cc1 (stereo not given)	> 36.7
Cc1ccc(C2OOC(c3cccc(C)c3)OO2)cc1 (stereo not given)	> 17
Cc1ccc(C2OOC(c3ccc(C(C)C)cc3)OO2)cc1 (stereo not given)	> 20.9
CCCc1ccc(C2OOC(c3ccc(C)cc3)OO2)cc1 (stereo not given)	> 14.9
CCc1ccc(C2OOC(c3ccc(C(C)(C)C)cc3)OO2)cc1 (stereo not given)	> 4
CCc1ccc(C2OOC(c3ccc(CC)cc3)OO2)cc1 (stereo not given)	> 15.9
COc1ccc(C2OOC(c3ccc(C)cc3)OO2)cc1 (stereo not given)	> 15.4
Cc1ccc(C2OOC(c3ccccc3)OO2)cc1 (stereo not given)	> 17
Cc1cccc(C2OOC(c3ccccc3)OO2)c1 (stereo not given)	> 39.7
CCCCc1ccc(C2OOC(c3ccc(CCCC)cc3)OO2)cc1 (stereo not given)	> 2.8
COc1ccc(C2OOC(c3ccc(C(C)(C)C)cc3)OO2)cc1 (stereo not given)	> 22.7
